Examples of compounds with documented normalized growth follow.
Experiment: chemical genetic growth profiling, strain panel (AID 1159580);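 note: tested at 20 µM; growth read once vehicle control cultures reached saturation at 30 °C; 1 = growth at the plate median or of vehicle wells; lower values mean less growth of the strain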
Conditions: S. cerevisiae deletion strains, growth OD, strain wtn01, active compounds read low
The whole screen tested about 5,500 compounds, of which about 2,000 (36%) were called active. Not shown: some 18% with an inconclusive outcome. Some of the results follow.

compound | normalized growth
COc1ccc2c(c1)OCC(Cc1ccc(OC)c(OC)c1)C2=O (stereo not drawn) | 0.971
COc1ccc2c(c1)OCC(Cc1ccc(OC)c(O)c1)C2=O (stereo not drawn) | 0.95
COc1ccc2c(c1)OCC(Cc1ccc(OC)c(OC(C)=O)c1)C2=O (stereo not drawn) | 1.01

* * *

Experiment: chemical genetic growth profiling, strain panel (AID 1159580);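 note: tested at 20 µM; growth read once vehicle control cultures reached saturation at 30 °C; 1 = growth at the plate median or of vehicle wells; lower values mean less growth of the strain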
Conditions: S. cerevisiae deletion strains, growth OD, locus YDL214C, strain PRR2
Among all 5,500 compounds or so, about 2,000 (36%) were called active. Not shown: some 18% with an inconclusive outcome. Cut-off read from the data, not from the text of the source: active = normalized growth mostly below about 0.91 (no sharp cut-off); inconclusive = no clear call, values can overlap the other calls; inactive = mostly above about 0.92. This is one part of the list.
Labels: 1 (yes) = active, 0 (no) = inactive

compound | qualitative-label
O=S(=O)(Nc1cc(Cl)c(Cl)cc1Cl)c1cc(C(F)(F)F)cc(C(F)(F)F)c1 | 0 (no)
C/C(=N/NC(=S)NCC(C)(C)C)c1cc(F)cc(Cl)c1O | 0 (no)
CC1=CC(=O)N(c2ccc(OC(F)(F)F)cc2)C1=O | 1 (yes)
CC(C)(C)C1=C(C#N)C(c2c(Cl)cccc2Cl)C(C#N)=C(N)O1 (stereo not drawn) | 0 (no)
Cc1c(S(=O)(=O)Nc2cccc([N+](=O)[O-])c2)sc2ccc(Cl)cc12 | 0 (no)
O=C(Oc1ccc2ccccc2c1C1SCCS1)c1ccc([N+](=O)[O-])o1 | 0 (no)
Cc1cccc(N=NC(C(=O)C(F)(F)F)=C(O)c2cccs2)c1 | 0 (no)
O=S(=O)(NCc1ccc(C(F)(F)F)cc1)c1cccc(C(F)(F)F)c1 | 0 (no)
Clc1cc(Cl)cc(C=NCc2ccccc2)c1 | 1 (yes)
CC1C(c2ccccc2)N(C)C(c2ccccc2)CC1(O)c1ccc(F)cc1 (stereo not drawn) | 0 (no)
CNC(=O)Sc1c(-c2ccc(Cl)cc2)nn(C(=O)NC)c1SC | 1 (yes)
COc1ccc2c(c1)CCc1sc(NC(=O)c3ccco3)nc1-2 | 0 (no)
Cc1ccc(S(=O)(=O)Nc2nc(-c3ccc(C)c(Cl)c3)c(C)s2)cc1 | 0 (no)
O=C(Nc1cc(Cl)ccc1O)c1ccccc1CSc1ccc(Cl)cc1 | 0 (no)
Clc1ccc(-c2cnc(Nc3cc(Cl)cc(Cl)c3)s2)cc1 | 1 (yes)
CC1=CC(=O)N(c2ccc(F)c(Cl)c2)C1=O | 1 (yes)
O=C(NNc1ccccc1)c1cc(-c2ccc(Cl)cc2)oc1C(F)(F)F | 0 (no)
Cn1nccc1-c1cc(Cl)cc(Cl)c1O | 0 (no)
O=C(Nc1cc(C(F)(F)F)cc(C(F)(F)F)c1)C(Cl)(Cl)Cl | 0 (no)
Clc1ccc(CSc2nccn2-c2cc(Cl)ccc2Cl)cc1 | 0 (no)
N#Cc1cccc(CSc2nc3ccc(C(F)(F)F)cc3[nH]2)c1 | 0 (no)
N#Cc1ccc(Oc2sccc2[N+](=O)[O-])cc1 | 0 (no)
N/C(=N/O)c1ccc(Oc2ccc(C3SCCS3)cc2)c([N+](=O)[O-])c1 | 0 (no)
